These data points were gathered from ChEMBL document CHEMBL5634136.

assay: Antiproliferative activity against mouse KC-0122 cells assessed as inhibition of cell growth incubated for 72 hrs by MTT assay; format: functional, cell-based; conditions: KC-0122, 72 h
endpoint_label: IC50 (nM)
Give bare numbers, in nM.

Sample records with IC50:
INSERT INTO results (compound_structure_string, endpoint_label, units_label, numeric_value) VALUES
  ('COc1cc(N2CCN(C)CC2)c(NC(=O)CN)cc1Nc1nccc(-c2cn(C)c3ccccc23)n1', 'IC50', 'nM', 1170),
  ('COc1cc(N2CCC(N3CCN(C)CC3)CC2)ccc1Nc1nccc(-c2cn(C)c3ccccc23)n1', 'IC50', 'nM', 1390),
  ('CN1CCN(c2ccc(Nc3nccc(-c4cn(C)c5ccccc45)n3)cc2)CC1', 'IC50', 'nM', 540),
  ('CN(C)C1CCN(c2ccc(Nc3nccc(-c4cn(C)c5ccccc45)n3)cc2NS(=O)(=O)C2CC2)CC1', 'IC50', 'nM', 250),
  ('Cn1cc(-c2ccnc(Nc3cccc(NC(=O)CCN)c3)n2)c2ccccc21', 'IC50', 'nM', 4770),
  ('CN(C)C1CCN(c2ccc(Nc3nccc(-c4cn(C)c5ccccc45)n3)cc2NC(=O)CN)CC1', 'IC50', 'nM', 460);

Please supply IC50 for each of the following items, keeping them in order.
1. COCC(=O)Nc1cc(Nc2nccc(-c3cn(C)c4ccccc34)n2)c(OC)cc1N1CCC(N(C)C)CC1
2. COc1ccc(NC(=O)CCN)cc1Nc1nccc(-c2cn(C)c3ccccc23)n1
3. CN(C)C1CCN(c2ccc(Nc3nccc(-c4cn(C)c5ccccc45)n3)cc2)CC1
4. Cn1cc(-c2ccnc(Nc3ccc(N4CCC(N5CCOCC5)CC4)cc3)n2)c2ccccc21

1: 450; 2: 1230; 3: 450; 4: 5740

----------
biological target: Epidermal growth factor receptor (Homo sapiens, UniProt P00533, C797S/EX19DEL/T790M); assay: Inhibition of EGFR Del19/T790M/C797S mutant (unknown origin)
Sequence (P00533 whole entry, looked up, stated change not applied): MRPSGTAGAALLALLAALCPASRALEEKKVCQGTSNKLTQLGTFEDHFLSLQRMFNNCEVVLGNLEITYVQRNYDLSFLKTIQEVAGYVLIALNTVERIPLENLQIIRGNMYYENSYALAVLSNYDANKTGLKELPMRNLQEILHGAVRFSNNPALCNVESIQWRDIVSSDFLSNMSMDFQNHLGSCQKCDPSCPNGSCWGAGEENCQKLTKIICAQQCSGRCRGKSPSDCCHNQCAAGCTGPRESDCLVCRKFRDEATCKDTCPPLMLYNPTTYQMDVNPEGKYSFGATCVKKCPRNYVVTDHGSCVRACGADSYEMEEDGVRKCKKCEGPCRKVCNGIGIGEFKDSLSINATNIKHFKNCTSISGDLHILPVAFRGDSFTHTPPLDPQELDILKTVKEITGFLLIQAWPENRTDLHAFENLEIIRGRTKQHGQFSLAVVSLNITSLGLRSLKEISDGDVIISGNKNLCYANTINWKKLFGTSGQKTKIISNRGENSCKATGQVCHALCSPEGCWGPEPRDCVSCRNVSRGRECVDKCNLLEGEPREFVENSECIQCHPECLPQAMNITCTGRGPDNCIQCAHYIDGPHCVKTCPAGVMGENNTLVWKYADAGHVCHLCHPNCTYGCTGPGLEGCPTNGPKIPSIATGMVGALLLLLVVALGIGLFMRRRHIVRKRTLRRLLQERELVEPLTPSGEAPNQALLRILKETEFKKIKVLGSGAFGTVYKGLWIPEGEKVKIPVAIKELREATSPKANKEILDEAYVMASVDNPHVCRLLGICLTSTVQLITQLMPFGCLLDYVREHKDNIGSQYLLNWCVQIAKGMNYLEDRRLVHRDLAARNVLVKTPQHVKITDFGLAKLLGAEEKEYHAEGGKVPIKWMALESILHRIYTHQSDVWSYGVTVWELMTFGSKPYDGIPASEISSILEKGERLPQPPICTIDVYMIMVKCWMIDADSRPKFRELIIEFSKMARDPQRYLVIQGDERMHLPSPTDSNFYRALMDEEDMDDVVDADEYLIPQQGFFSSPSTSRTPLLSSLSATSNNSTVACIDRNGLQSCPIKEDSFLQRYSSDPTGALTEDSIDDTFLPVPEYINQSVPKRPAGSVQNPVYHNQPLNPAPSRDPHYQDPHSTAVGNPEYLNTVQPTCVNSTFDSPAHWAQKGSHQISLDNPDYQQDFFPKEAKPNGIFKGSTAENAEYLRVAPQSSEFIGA
endpoint_label: IC50 (nM)
One number for each entry, in nM.

// lookup IC50 for CN(C)C1CCN(c2ccc(Nc3nccc(-c4cn(C)c5ccccc45)n3)cc2NS(C)(=O)=O)CC1
18

----------
experiment: Antiproliferative activity against mouse KC-0116 cells assessed as inhibition of cell growth incubated for 72 hrs by MTT assay; type: functional, cell-based; conditions: KC-0116, 72 h
pIC50: −log10 of the molar value.
The label depends only on pIC50: rule met if it is at least 6, rule not met if it is smaller.

Please check the record Cn1cc(-c2ccnc(Nc3ccc(N4CCCCC4)cc3)n2)c2ccccc21 and state if its pIC50 is at or above 6.
rule not met

Please check the record CN(C)C1CCN(c2ccc(Nc3nccc(-c4cn(C)c5ccccc45)n3)cc2NS(=O)(=O)C2CC2)CC1 and state if its pIC50 is at or above 6.
rule met

Please check the record COCC(=O)Nc1cc(Nc2nccc(-c3cn(C)c4ccccc34)n2)c(OC)cc1N1CCC(N(C)C)CC1 and state if its pIC50 is at or above 6.
rule met

----------
assay: Antiproliferative activity against mouse KC-0122 cells assessed as inhibition of cell growth incubated for 72 hrs by MTT assay; format: functional, cell-based; settings: KC-0122, 72 h
endpoint_label: IC50 (nM)
One number for each entry, in nM.

Sample records with IC50:
INSERT INTO results (compound_structure_string, units_label, numeric_value) VALUES
  ('Cn1cc(-c2ccnc(Nc3cccc(NS(=O)(=O)C4CC4)c3)n2)c2ccccc21', 'nM', 1200),
  ('COc1cc(N(C)CCN(C)C)c(NC(=O)CNC(=O)OC(C)(C)C)cc1Nc1nccc(-c2cn(C)c3ccccc23)n1', 'nM', 1280),
  ('COc1cc(N(C)CCN(C)C)c(NC(=O)CNC(C)=O)cc1Nc1nccc(-c2cn(C)c3ccccc23)n1', 'nM', 1450),
  ('COc1cc(N(C)CCN(C)C)ccc1Nc1nccc(-c2cn(C)c3ccccc23)n1', 'nM', 1610),
  ('CN1CCN(C2CCN(c3ccc(Nc4nccc(-c5cn(C)c6ccccc56)n4)cc3NS(=O)(=O)C3CC3)CC2)CC1', 'nM', 200),
  ('COc1cc(N(C)CCN(C)C)c(NC(=O)CN)cc1Nc1nccc(-c2cn(C)c3ccccc23)n1', 'nM', 2720);

Proceeding to the next compound to report its IC50.
// lookup IC50 for COc1cc(N(C)CCN(C)C)c(NC(=O)CNS(C)(=O)=O)cc1Nc1nccc(-c2cn(C)c3ccccc23)n1
1170

----------
For each record, write down the corresponding IC50.
test: Antiproliferative activity against mouse KC-0116 cells assessed as inhibition of cell growth incubated for 72 hrs by MTT assay; type: functional, cell-based; conditions: KC-0116, 72 h
In your response, put the unit directly after the numeric value.

Sample records with IC50:
INSERT INTO assay_data (molecule, result) VALUES
  ('CN(C)CCN(C)c1ccc(Nc2nccc(-c3cn(C)c4ccccc34)n2)cc1', '1.06 µM'),
  ('CN(C)C1CCN(c2ccc(Nc3nccc(-c4cn(C)c5ccccc45)n3)cc2NS(C)(=O)=O)CC1', '0.16 µM'),
  ('CN(C)CCOc1ccc(Nc2nccc(-c3cn(C)c4ccccc34)n2)cc1', '1.29 µM');

Please supply IC50 for each of the following items, keeping them in order.
1. Cn1cc(-c2ccnc(Nc3ccc(N4CCOCC4)cc3)n2)c2ccccc21
2. COc1cc(N2CCN(C)CC2)c(NC(=O)CN)cc1Nc1nccc(-c2cn(C)c3ccccc23)n1

["7 µM", "1.65 µM"]

Please supply IC50 for each of the following items, keeping them in order.
1. Cn1cc(-c2ccnc(Nc3ccc(N4CCC(N5CCOCC5)CC4)cc3)n2)c2ccccc21
2. CN1CCN(C2CCN(c3ccc(Nc4nccc(-c5cn(C)c6ccccc56)n4)cc3NS(=O)(=O)C3CC3)CC2)CC1
3. CN1CCN(C2CCN(c3ccc(Nc4nccc(-c5cn(C)c6ccccc56)n4)cc3)CC2)CC1
4. COc1cc(OCCN(C)C)c(NC(=O)CN)cc1Nc1nccc(-c2cn(C)c3ccccc23)n1
5. COc1cc(N(C)CCN(C)C)c(NC(=O)CCN)cc1Nc1nccc(-c2cn(C)c3ccccc23)n1

1. 1.71 µM
2. 0.17 µM
3. 0.84 µM
4. 1.5 µM
5. 1.49 µM

----------
For each record, write down the corresponding IC50.
experiment: Antiproliferative activity against mouse KC-0116 cells assessed as inhibition of cell growth incubated for 72 hrs by MTT assay; type: functional, cell-based; details: KC-0116, 72 h
Give bare numbers, in nM.

INSERT INTO results (compound_structure_string, units_label, numeric_value) VALUES
  ('CC(=O)N1CCN(c2ccc(Nc3nccc(-c4cn(C)c5ccccc45)n3)cc2)CC1', 'nM', 1050),
  ('COc1cc(N2CCC(N(C)C)CC2)c(NC(=O)CO)cc1Nc1nccc(-c2cn(C)c3ccccc23)n1', 'nM', 460);

Please supply IC50 for each of the following items, keeping them in order.
1. COc1cc(N(C)CCN(C)C)c(NC(=O)CN)cc1Nc1nccc(-c2cn(C)c3ccccc23)n1
2. COc1cc(N(C)CCN(C)C)c(NC(=O)CO)cc1Nc1nccc(-c2cn(C)c3ccccc23)n1
3. CN(C)C1CCN(c2ccc(Nc3nccc(-c4cn(C)c5ccccc45)n3)cc2)CC1
4. C=CC(=O)Nc1cc(Nc2nccc(-c3cn(C)c4ccccc34)n2)c(OC)cc1N(C)CCN(C)C

1. 1320
2. 1390
3. 400
4. 1420

----------
For each record, write down the corresponding pIC50.
assay: Antiproliferative activity against mouse KC-0116 cells assessed as inhibition of cell growth incubated for 72 hrs by MTT assay; type: functional, cell-based; settings: KC-0116, 72 h
Answers are plain numbers, as −log10 of the molar value.

Sample records with pIC50:
INSERT INTO results (compound_structure_string, endpoint_label, numeric_value) VALUES
  ('CN(C)C1CCN(c2ccc(Nc3nccc(-n4cc(NC(=O)c5ccccc5)cn4)n3)cc2NS(C)(=O)=O)CC1', 'pIC50', 6.28),
  ('CN1CCN(c2ccc(Nc3nccc(-c4cn(C)c5ccccc45)n3)cc2)CC1', 'pIC50', 6.42),
  ('COc1ccc(NC(=O)CN)cc1Nc1nccc(-c2cn(C)c3ccccc23)n1', 'pIC50', 5.42);

Please supply pIC50 for each of the following items, keeping them in order.
1. COc1cc(N(C)CCN(C)C)c(NC(=O)CNS(C)(=O)=O)cc1Nc1nccc(-c2cn(C)c3ccccc23)n1
2. CN(C)CCN(c1ccc(Nc2nccc(-c3cn(C)c4ccccc34)n2)cc1)S(C)(=O)=O
3. COc1cc(N2CCC(N3CCN(C)CC3)CC2)ccc1Nc1ncc(Cl)c(Nc2ccccc2P(C)(C)=O)n1
4. CN(C)C1CCN(c2ccc(Nc3nccc(-c4cn(C)c5ccccc45)n3)cc2NC(=O)CN)CC1

1. 5.81
2. 6.37
3. 6.46
4. 6.36
